Consider the following sequences and their measured protein stability index readings.
# System: Saccharomyces cerevisiae;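 further: PSI is a weighted mean of sequencing reads over stability bins, variants kept only with over 10 reads, mCherry proximal and sfGFP distal, peptide attached via GGGS linker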
# TEST_DESCRIPTION: protein stability index of tFT-peptide fusion (C-terminal peptide) (PSI (0-1 scale)); higher = more stable (slower turnover)
# REPORTED_CONDITIONS: genetic background: wild type; temperature: 30 C
MEASUREMENT_TYPE: protein stability index

RRRGQDEGKQKR
0.751
FRRYGKEAVDKD
0.696
KPKKKKKDEQTI
0.672
GSVQHRRRDRCD
0.676
DRYGVYPIYGKF
0.686
PPYSIPARAPHP
0.704
LRVYIRAAWVGL
0.604
HPHRSAIIAGNH
0.72
AMGSGLVWAGPA
0.684
GQSLGLPGRWYI
0.775
PPLPNLVYHLST
0.619
VGVVLWVWGLGD
0.446
CRWLLWVDGWRV
0.584
GSLPPCPSHAPF
0.698
RLVSPPPLPHRP
0.688
LAGLRLPNDLGP
0.712
LLRFSFLHFLFY
0.612
FLSCLLERSWSL
0.79
VLPPTPLTPVLP
0.676
